- Test summary: In vitro human microsomal stability assay
- Type: in vitro ADME
- Details: human, 0.5 h, 0.5 μM, pH 7.4
Endpoint: HUMAN MICROSOMAL STABILITY (% REMAINING AFTER 30 MINUTES)

Compound	Assay value
CC1(O)CC(c2ccc(OC(F)(F)F)cc2)(C(O)c2ncccn2)C1 (centres unmarked)	>85%
OC(C1CCCc2cccnc21)C1(c2ccccc2C(F)(F)F)CCC1 (centres unmarked) [Example 195]	<0.01%
OC(C1CCCc2cccnc21)C1(c2cccc(C(F)(F)F)c2)CCC1 (centres unmarked) [Example 179]	<0.01%
OC(C1CCCc2cccnc21)C1(c2ccccc2OC(F)(F)F)CCC1 (centres unmarked) [Example 191]	<0.01%
OC(c1ccccn1)C1(c2ccc(OC(F)(F)F)cc2)CCNCC1 (centres unmarked)	>85%

====

- Test summary: In vitro human microsomal stability assay
- Type: in vitro ADME
- Details: human, 0.5 h, 0.5 μM, pH 7.4
Readings of HUMAN MICROSOMAL STABILITY (% REMAINING AFTER 30 MINUTES) for the listed compounds
Endpoint: HUMAN MICROSOMAL STABILITY (% REMAINING AFTER 30 MINUTES)

Compound	Assay value
CC1(O)CC(c2ccc(OC(F)(F)F)cc2)(C(O)c2ccccn2)C1 (stereo not shown) [Example 203]	>85%
OC(C1CCCc2cccnc21)C1(c2ccccc2C(F)(F)F)CCC1 (stereo not shown) [Example 196]	<0.01%
O=C1CC(c2cc(C(F)(F)F)ccn2)([C@H](O)c2ccccn2)C1	>85%
OC1CC(c2cc(C(F)(F)F)ccn2)(C(O)c2ccccn2)C1 (stereo not shown) [Example 283]	>85%
NC1CCCCC1C(O)C1(c2cccc(C(F)(F)F)c2)CCC1 (stereo not shown)	>85%
OC1CC(c2cc(C(F)(F)F)ccn2)(C(O)c2ccccn2)C1 (single isomer, unassigned) [Example 290]	>85%
OC(C1CCCc2cccnc21)C1(c2cccc(OC(F)(F)F)c2)CCC1 (stereo not shown) [Example 187]	<0.01%
OC(c1ccccn1)C1(C2CCCOC2)CCC1 (stereo not shown)	>85%
OC(C1CCCc2cccnc21)C1(c2ccc(C(F)(F)F)cc2)CCC1 (stereo not shown) [Example 183]	<0.01%
NC1CCCC1C(O)C1(c2cccc(C(F)(F)F)c2)CCC1 (stereo not shown)	>85%

====

- Test summary: In vitro rat microsomal stability assay
- Type: in vitro ADME, rat (Sprague-Dawley)
- Details: Sprague-Dawley, rat, 0.5 h, 0.5 μM, pH 7.4
Readings of RAT MICROSOMAL STABILITY (% REMAINING AFTER 30 MINUTES) for the listed molecules
Endpoint: RAT MICROSOMAL STABILITY (% REMAINING AFTER 30 MINUTES)

Molecule	Assay value
OC(C1CCCc2cccnc21)C1(c2ccc(C(F)(F)F)cc2)CCC1 (stereo not shown) [Example 183]	<0.01%
Cc1ccccc1CC1(C(O)c2ccccn2)CCC1 (stereo not shown)	0.017%
O=C1CC(c2cc(C(F)(F)F)ccn2)(C(O)c2ccccn2)C1 (stereo not shown)	69%
OC1CC(c2ccc(Cl)c(Cl)c2)(C(O)c2ccccn2)C1 (single isomer, unassigned) [Example 119]	69%
OC(c1ccccn1)C1(c2ccc(F)c(F)c2)CCC1 (stereo not shown)	4.2%
OC(c1ccccn1)C1(C2CCCCC2)CCC1 (stereo not shown)	<0.01%
OC(c1ccccn1)C1(c2ccc(OC(F)(F)F)cc2)CCCO1 (stereo not shown) [Example 95]	0.61%

Source listed as patent US8772500B2.
